# target-entity: αIIb (INTEGRIN, ALPHA 2B; PLATELET GLYCOPROTEIN IIB OF IIB/IIIA COMPLEX, ANTIGEN CD41) (human) (UniProt P08514)
# protocol-details: αIIb complexes captured, mass spectrometry; No. Expts 1
readout-label: log10(#Peptides) (log10 of the value in peptides)

substance | log10(#Peptides)
…, DSH HOMOLOG 2 (DROSOPHILA) (from UniProt O14641 1-736) | 0.48
GEPHYRIN (from UniProt Q9NQX3 1-736) | 1.08
…-3-PHOSPHATE DEHYDROGENASE (from UniProt P04406 2-335) | 0.48
REGULATION OF NUCLEAR pre-mRNA DOMAIN CONTAINING 1A (from UniProt Q96P16 2-312) | 0.85
SRY (SEX … REGION Y)-BOX 6 (from UniProt P35712 1-828) | 0.30
N-ACETYLGLUCOSAMINE KINASE (from UniProt Q9UJ70 2-344) | 0.60
ATP-BINDING CASSETTE, SUB-FAMILY A (ABC1), MEMBER 13 (from UniProt Q86UQ4 1-5058) | 0.30
POLYMERASE (DNA-DIRECTED), DELTA … PROTEIN 2 (from UniProt Q9Y2S7 52-368) | 1.04
CYCLIN G1 (from UniProt P51959 1-295) | 0.30
C5orf25 (FLJ44216 PROTEIN) (from UniProt Q8NDZ2 1-872) | 0.60
RAB … LYSOSOMAL PROTEIN-LIKE 1 (from UniProt Q5EBL4 1-403) | 0.85
CORTACTIN (from UniProt Q14247 1-550) | 0.70
RB1-INDUCIBLE COILED-COIL 1 (from UniProt Q8TDY2 1-1594) | 0.78
ATP CITRATE LYASE (from UniProt P53396 1-1101) | 0.70
UDP-GLUCOSE PYROPHOSPHORYLASE 1 (from UniProt Q16851 1-508) | 1.11
PATCHED DOMAIN CONTAINING 2 (from UniProt Q9P2K9 1-1392) | 0.30
CYCLIN K (from UniProt O75909 1-580) | 0.00
3-HYDROXY-3-METHYLGLUTARYL-COENZYME A SYNTHASE 1 (SOLUBLE) (from UniProt Q01581 1-520) | 0.60
CNDP … 2 (METALLO… M20 FAMILY) (from UniProt Q96KP4 2-475) | 0.78
PEROXIREDOXIN 3 (from UniProt P30048 62-256) | 0.60
COILED-COIL DOMAIN CONTAINING 50 (from UniProt Q8IVM0 2-306) | 0.85
FOUR AND A HALF LIM DOMAINS 1 (from UniProt Q13642 2-323) | 0.70
HTRA SERINE … 2 (from UniProt O43464 134-458) | 0.90
CORONIN, ACTIN BINDING PROTEIN, 1A (from UniProt P31146 2-461) | 0.30
